Target: EGFR L858R/C797S (Homo sapiens, UniProt P00533, C797S/L858R)
Sequence (P00533 25-1210 C797S/L858R): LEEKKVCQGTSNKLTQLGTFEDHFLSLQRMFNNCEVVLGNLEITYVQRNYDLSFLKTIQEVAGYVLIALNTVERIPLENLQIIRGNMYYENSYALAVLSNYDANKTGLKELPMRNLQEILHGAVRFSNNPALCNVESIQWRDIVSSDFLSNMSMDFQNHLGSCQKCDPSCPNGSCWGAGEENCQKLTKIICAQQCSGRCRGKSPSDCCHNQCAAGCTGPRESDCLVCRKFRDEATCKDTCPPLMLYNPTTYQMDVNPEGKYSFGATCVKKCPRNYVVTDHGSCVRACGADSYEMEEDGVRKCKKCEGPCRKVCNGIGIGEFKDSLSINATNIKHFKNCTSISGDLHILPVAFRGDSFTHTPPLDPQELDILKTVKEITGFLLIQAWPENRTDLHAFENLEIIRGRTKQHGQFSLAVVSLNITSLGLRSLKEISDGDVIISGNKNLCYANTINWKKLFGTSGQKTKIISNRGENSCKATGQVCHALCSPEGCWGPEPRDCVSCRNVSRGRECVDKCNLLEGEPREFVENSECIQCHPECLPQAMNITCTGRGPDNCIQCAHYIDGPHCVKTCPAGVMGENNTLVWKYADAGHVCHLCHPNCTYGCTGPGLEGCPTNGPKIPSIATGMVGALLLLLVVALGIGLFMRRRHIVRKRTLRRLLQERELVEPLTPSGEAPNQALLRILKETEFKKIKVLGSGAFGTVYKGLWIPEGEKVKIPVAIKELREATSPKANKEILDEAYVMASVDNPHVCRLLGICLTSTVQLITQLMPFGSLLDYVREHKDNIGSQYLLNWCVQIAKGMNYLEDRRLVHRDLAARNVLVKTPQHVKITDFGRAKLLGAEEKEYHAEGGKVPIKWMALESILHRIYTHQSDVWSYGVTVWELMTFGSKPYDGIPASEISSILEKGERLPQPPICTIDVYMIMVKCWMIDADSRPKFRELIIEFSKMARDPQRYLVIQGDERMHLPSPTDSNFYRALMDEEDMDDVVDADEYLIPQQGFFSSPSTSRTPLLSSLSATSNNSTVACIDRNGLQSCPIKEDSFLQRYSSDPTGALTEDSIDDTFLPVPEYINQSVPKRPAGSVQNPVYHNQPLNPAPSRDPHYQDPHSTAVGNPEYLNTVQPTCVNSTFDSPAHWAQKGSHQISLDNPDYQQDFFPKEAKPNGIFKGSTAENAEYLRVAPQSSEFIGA
Test: Biochemical EGFR kinase assay (Lance Ultra TR-FRET), double mutant L858R/C797S
Settings: IC50 L858R/C797S (nM) 100 μM ATP, 100 μM ATP
Assign IC50 to each entry below.
A number alone suffices; assume nM.

GET /values?readout=IC50&item= `Cc1cnc(-c2cnc(Nc3ccnc(-c4cnn(S(=O)(=O)C5CC5)c4)n3)cc2N[C@H]2CC[C@@](C)(O)CC2)cn1`
7.4

Request: CC(O)c1cccc(-c2cnc(Nc3ccnc(-c4cnn(S(=O)(=O)C5CC5)c4)n3)cc2NC2CCC(C)(O)CC2)n1 (stereo not shown)
6.2

Request: `C[C@]1(O)CC[C@@H](Nc2cc(Nc3ccnc(-c4cnn(S(=O)(=O)C5CC5)c4)n3)ncc2-c2cnc(N3CCC(F)(F)CC3)cn2)CC1`
313

Request: `CN(C)c1cnc(-c2cnc(Nc3ccnc(-c4cnn(S(=O)(=O)C5CC5)c4)n3)cc2N[C@H]2CC[C@@](C)(O)CC2)nc1`
74.8

Request: `CN1CCN(Cc2ccnc(-c3cnc(Nc4ccnc(-c5cnn(S(=O)(=O)C6CC6)c5)n4)cc3N[C@H]3CC[C@@](C)(O)CC3)c2)CC1`
1

Request: `CC(C)(O)c1cnc(-c2cnc(Nc3ccnc(-c4cnn(S(=O)(=O)C5CC5)c4)n3)cc2N[C@H]2CC[C@@H](CO)CC2)cn1`
0.3

Request: `CN(C)c1ccnc(-c2cnc(Nc3ccnc(-c4cnn(S(=O)(=O)C5CC5)c4)n3)cc2N[C@H]2CC[C@@](C)(O)CC2)n1`
523

====

Target: EGFR L858R/C797S (Homo sapiens, UniProt P00533, C797S/L858R)
Test: Biochemical EGFR kinase assay (Lance Ultra TR-FRET), double mutant L858R/C797S
Details: IC50 L858R/C797S, 100 μM ATP
Assign IC50 to each entry below.
A number alone suffices; assume nM.

GET /values?readout=IC50&item= `CN(C)CCNc1ccnc(-c2cnc(Nc3ccnc(-c4cnn(S(=O)(=O)C5CC5)c4)n3)cc2N[C@H]2CC[C@@](C)(O)CC2)c1`
2.3

Request: `C[C@]1(O)CC[C@@H](Nc2cc(Nc3ccnc(-c4cnn(S(=O)(=O)C5CC5)c4)n3)ncc2-c2cc(OCCN3CCOCC3)ccn2)CC1`
30.1

Request: `CN1CCC(Oc2cccc(-c3cnc(Nc4ccnc(-c5cnn(S(=O)(=O)C6CC6)c5)n4)cc3N[C@H]3CC[C@@](C)(O)CC3)n2)CC1`
2.5

Request: `C[C@]1(O)CC[C@@H](Nc2cc(Nc3ccnc(-c4cnn(S(=O)(=O)C5CC5)c4)n3)ncc2-c2cccc(CC(F)(F)F)n2)CC1`
63

====

Biological target: EGFR L858R/T790M/C797S (Homo sapiens, UniProt P00533, C797S/L858R/T790M)
Sequence (P00533 25-1210 T790M/C797S/L858R): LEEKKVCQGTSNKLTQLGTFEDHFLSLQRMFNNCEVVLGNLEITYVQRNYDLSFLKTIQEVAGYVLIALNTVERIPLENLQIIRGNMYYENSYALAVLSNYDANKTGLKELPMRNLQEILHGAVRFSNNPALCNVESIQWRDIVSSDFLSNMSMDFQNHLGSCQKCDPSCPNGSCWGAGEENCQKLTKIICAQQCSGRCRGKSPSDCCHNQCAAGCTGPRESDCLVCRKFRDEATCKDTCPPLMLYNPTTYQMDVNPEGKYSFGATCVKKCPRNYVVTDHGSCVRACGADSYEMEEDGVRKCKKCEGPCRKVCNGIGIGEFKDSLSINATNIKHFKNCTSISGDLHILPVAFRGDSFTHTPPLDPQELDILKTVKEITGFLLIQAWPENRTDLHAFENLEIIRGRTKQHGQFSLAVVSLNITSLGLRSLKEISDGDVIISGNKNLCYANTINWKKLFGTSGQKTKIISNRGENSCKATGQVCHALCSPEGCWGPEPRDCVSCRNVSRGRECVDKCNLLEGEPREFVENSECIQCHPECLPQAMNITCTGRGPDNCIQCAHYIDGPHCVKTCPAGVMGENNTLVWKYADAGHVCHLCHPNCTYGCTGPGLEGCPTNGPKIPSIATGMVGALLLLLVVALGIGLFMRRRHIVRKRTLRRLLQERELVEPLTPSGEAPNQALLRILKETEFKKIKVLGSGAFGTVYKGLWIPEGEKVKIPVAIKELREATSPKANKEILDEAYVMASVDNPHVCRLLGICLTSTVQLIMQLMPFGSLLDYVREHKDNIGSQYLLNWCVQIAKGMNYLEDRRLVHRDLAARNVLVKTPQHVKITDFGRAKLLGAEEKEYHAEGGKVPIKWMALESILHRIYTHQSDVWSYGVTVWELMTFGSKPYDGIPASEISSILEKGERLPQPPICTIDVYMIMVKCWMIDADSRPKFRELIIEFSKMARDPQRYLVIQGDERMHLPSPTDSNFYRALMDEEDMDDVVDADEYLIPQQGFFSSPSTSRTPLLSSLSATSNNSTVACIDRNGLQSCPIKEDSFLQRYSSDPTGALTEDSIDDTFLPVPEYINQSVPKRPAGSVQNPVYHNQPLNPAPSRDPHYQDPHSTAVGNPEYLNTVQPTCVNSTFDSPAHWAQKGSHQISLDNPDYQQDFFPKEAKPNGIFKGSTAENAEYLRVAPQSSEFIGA
Experiment: Biochemical EGFR kinase assay (Lance Ultra TR-FRET), triple mutant L858R/T790M/C797S
Details: ATP at Km; read-out: IC50 L858R/T790M/C797S, Km ATP
Assign pIC50 to each entry below.
Recall that pIC50 is obtained by taking minus log10 of the concentration measured in molar.

GET /values?readout=pIC50&item= `O=S(=O)(C1CC1)n1cc(-c2nccc(Nc3cc(N[C@H]4CC[C@@H](CO)CC4)c(-c4cc(NC5CC(F)(F)C5)ccn4)cn3)n2)cn1`
8.46

Request: `C[C@]1(O)CC[C@@H](Nc2cc(Nc3ccnc(-c4cnn(S(=O)(=O)C5CC5)c4)n3)ncc2-c2cc(NCCC(F)(F)F)ccn2)CC1`
8.80

Request: `C[C@]1(O)CC[C@@H](Nc2cc(Nc3ccnc(-c4cnn(S(=O)(=O)C5CC5)c4)n3)ncc2-c2ccc(C(F)(F)F)c(F)n2)CC1`
8.66

Request: `CC(C)(F)c1ccc(-c2cnc(Nc3ccnc(-c4cnn(S(=O)(=O)C5CC5)c4)n3)cc2N[C@H]2CC[C@@H](C(C)(C)O)CC2)nc1`
8.72

Request: O=S(=O)(C1CC1)n1cc(-c2nccc(Nc3cc(NC4CCC(F)(CO)CC4)c(-c4cccc(F)n4)cn3)n2)cn1 (stereo not drawn)
9.40

Request: `CN(C)C[C@H]1CC[C@@H](Nc2cc(Nc3ccnc(-c4cnn(S(=O)(=O)C5CC5)c4)n3)ncc2-c2cccc(CC(F)(F)F)n2)CC1`
10.00

Request: `CC(C)(O)[C@H]1CC[C@@H](Nc2cc(Nc3ccnc(-c4cnn(S(=O)(=O)C5CC5)c4)n3)ncc2-c2ccc(C(=O)N3CCOCC3)cn2)CC1`
10.00

Request: `Cc1ccc(-c2cnc(Nc3ccnc(-c4cnn(S(=O)(=O)C5CC5)c4)n3)cc2N[C@H]2CC[C@@](C)(O)CC2)nc1F`
9.40

Request: `CN1CCN(C(=O)c2ccc(-c3cnc(Nc4ccnc(-c5cnn(S(=O)(=O)C6CC6)c5)n4)cc3N[C@H]3CC[C@@H](C(C)(C)O)CC3)nc2)CC1`
9.70

====

Target: EGFR wildtype (Homo sapiens)
Sequence (P00533 25-1210): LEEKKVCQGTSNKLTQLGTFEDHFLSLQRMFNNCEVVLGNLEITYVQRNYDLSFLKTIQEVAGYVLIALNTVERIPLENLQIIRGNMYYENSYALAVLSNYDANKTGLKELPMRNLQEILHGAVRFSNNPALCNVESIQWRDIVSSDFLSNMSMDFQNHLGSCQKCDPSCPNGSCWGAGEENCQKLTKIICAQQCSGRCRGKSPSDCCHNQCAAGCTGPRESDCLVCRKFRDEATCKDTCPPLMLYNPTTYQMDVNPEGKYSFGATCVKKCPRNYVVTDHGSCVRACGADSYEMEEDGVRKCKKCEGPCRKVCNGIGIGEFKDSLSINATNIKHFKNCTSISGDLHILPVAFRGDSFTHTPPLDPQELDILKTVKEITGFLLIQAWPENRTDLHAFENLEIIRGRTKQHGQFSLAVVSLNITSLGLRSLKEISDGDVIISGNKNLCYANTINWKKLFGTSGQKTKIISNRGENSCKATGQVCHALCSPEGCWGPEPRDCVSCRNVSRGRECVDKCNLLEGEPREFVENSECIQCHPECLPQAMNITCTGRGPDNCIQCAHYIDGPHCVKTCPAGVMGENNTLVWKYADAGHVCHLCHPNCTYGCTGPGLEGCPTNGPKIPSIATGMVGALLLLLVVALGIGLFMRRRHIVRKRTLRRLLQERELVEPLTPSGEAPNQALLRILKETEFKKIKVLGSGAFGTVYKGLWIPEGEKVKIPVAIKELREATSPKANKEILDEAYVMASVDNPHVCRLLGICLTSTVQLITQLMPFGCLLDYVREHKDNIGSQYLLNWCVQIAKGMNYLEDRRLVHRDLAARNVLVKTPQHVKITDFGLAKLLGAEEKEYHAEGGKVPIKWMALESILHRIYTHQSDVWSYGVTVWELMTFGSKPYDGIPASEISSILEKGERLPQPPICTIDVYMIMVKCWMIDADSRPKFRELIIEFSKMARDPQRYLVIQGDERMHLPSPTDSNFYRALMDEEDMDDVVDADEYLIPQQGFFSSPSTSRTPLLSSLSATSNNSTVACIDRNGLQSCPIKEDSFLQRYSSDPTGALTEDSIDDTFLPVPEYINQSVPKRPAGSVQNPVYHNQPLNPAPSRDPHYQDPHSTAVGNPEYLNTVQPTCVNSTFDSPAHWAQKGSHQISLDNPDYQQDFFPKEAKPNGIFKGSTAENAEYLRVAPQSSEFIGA
Assay: Biochemical EGFR kinase assay (Lance Ultra TR-FRET), wildtype
Details: ATP at Km; read-out: IC50 WT, Km ATP
assay.metric: pIC50
Recall that pIC50 is obtained by taking minus log10 of the concentration measured in molar.

GET /values?readout=pIC50&item= `CC(F)(F)c1ccc(-c2cnc(Nc3ccnc(-c4cnn(S(=O)(=O)C5CC5)c4)n3)cc2N[C@H]2CC[C@@](C)(O)CC2)nc1`
8.05

Request: `CC(C)(O)[C@H]1CC[C@@H](Nc2cc(Nc3ccnc(-c4cnn(S(=O)(=O)C5CC5)c4)n3)ncc2-c2ccc(OCCO)cn2)CC1`
8.42

Request: CC(O)(c1ccc(-c2cnc(Nc3ccnc(-c4cnn(S(=O)(=O)C5CC5)c4)n3)cc2NC2CCC(CO)CC2)nc1)C(F)(F)F (centres unmarked)
8.39

Request: `Cc1ccc(-c2cnc(Nc3ccnc(-c4cnn(S(=O)(=O)C5CC5)c4)n3)cc2N[C@H]2CC[C@@](C)(O)CC2)nc1F`
8.39

Request: `CN1CCN(S(=O)(=O)c2ccc(-c3cnc(Nc4ccnc(-c5cnn(S(=O)(=O)C6CC6)c5)n4)cc3N[C@H]3CC[C@@](C)(O)CC3)nc2)CC1`
8.02

====

Assign IC50 to each entry below.
Molecular target: EGFR L858R/C797S (Homo sapiens, UniProt P00533, C797S/L858R)
Experiment: Biochemical EGFR kinase assay (Lance Ultra TR-FRET), double mutant L858R/C797S
Details: IC50 L858R/C797S (nM) 100 μM ATP, 100 μM ATP
A number alone suffices; assume nM.

GET /values?readout=IC50&item= `COC1CN(c2ccc(-c3cnc(Nc4ccnc(-c5cnn(S(=O)(=O)C6CC6)c5)n4)cc3N[C@H]3CC[C@@H](CO)CC3)nc2)C1`
9.7

Request: `O=S(=O)(C1CC1)n1cc(-c2nccc(Nc3cc(N[C@H]4CC[C@@H](CO)CC4)c(-c4ccc(CN5CCC(O)CC5)cn4)cn3)n2)cn1`
0.7

Request: `CC(C)(O)[C@H]1CC[C@@H](Nc2cc(Nc3ccnc(-c4cnn(S(=O)(=O)C5CC5)c4)n3)ncc2-c2cc(CN3CCC(F)(F)CC3)ccn2)CC1`
33.7

Request: `CC(C)(O)c1ccnc(-c2cnc(Nc3ccnc(-c4cnn(S(=O)(=O)C5CC5)c4)n3)cc2N[C@H]2CC[C@@](C)(O)CC2)c1`
3.6

Request: CN(C)CCOc1cnc(-c2cnc(Nc3ccnc(-c4cnn(S(=O)(=O)C5CC5)c4)n3)cc2NC2CCC(C)(O)CC2)cn1 (stereo not shown)
0.5

Request: `O=S(=O)(C1CC1)n1cc(-c2nccc(Nc3cc(N[C@H]4CC[C@@H](CO)CC4)c(-c4ccc(N5CCC(F)(F)CC5)nn4)cn3)n2)cn1`
52.7

Request: `C[C@]1(O)CC[C@@H](Nc2cc(Nc3ccnc(-c4cnn(S(=O)(=O)C5CC5)c4)n3)ncc2-c2cccnn2)CC1`
2.3
